assay: Cmax in Sprague-Dawley rat at 10 mg/kg, IG measured for 2880 mins by LC-MS/MS analysis; assay type: ADME, organism-based; details: in vivo, po
OUTCOME MEASURE: Cmax (µg/mL)
Numbers only, in µg/mL.

QUERY: Which Cmax value is on record for CCCc1ccc(C(=O)Nc2cnc3ccccc3c2N2CCN(Cc3ccccc3)CC2)cc1 ?
RESULT: 1.38

* * *

assay: Metabolic stability in human liver microsomes assessed as half life at 2 uM incubated for 60 mins by LC-MS/MS analysis; format: ADME, Microsome
OUTCOME MEASURE: half-life at 2 µM (min)
One number for each entry, in min.

Consider the following items and state reported half-life at 2 µM for each.
1. CCCc1ccc(C(=O)Nc2cnc3ccccc3c2N2CCN(Cc3ccccc3)CC2)cc1
2. O=C(Nc1cnc2ccccc2c1N1CCN(Cc2ccccc2)CC1)c1ccccc1

RESULT:
1: 45.7; 2: 9.4

* * *

target: Cholinesterase (Equus caballus, UniProt P81908); assay: Inhibition of equine serum BChE using BTC as substrate incubated for 2 mins by Ellman's method; assay type: cell-free
Sequence (P81908 whole entry): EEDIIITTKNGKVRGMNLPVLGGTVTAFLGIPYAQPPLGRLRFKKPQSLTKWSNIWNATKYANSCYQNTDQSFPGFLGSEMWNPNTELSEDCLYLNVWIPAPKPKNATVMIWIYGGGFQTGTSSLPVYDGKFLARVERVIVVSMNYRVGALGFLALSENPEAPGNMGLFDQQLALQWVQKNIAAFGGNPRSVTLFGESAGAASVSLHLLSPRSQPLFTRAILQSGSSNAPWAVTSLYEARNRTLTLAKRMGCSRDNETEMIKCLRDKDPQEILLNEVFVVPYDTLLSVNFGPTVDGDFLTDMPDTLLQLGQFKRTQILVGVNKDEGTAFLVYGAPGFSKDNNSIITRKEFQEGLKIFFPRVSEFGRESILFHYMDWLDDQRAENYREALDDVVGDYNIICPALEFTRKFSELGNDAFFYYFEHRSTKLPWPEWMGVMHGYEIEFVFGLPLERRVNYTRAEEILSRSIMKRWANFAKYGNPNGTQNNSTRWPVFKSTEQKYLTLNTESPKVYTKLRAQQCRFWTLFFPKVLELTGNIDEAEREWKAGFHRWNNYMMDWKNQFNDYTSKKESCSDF
The threshold is 600 nM. Values of IC50 beneath it are tagged y; values meeting or exceeding it are tagged n.

In [3]: df
Out[3]:
                                  structure                                       tgt  class_name
0  O=C(Cc1ccc(Cl)cc1)Nc1cnc2ccccc2c1N1CCN(Cc2ccccc2)CC1  Cholinesterase (Equus caballus, UniProt P81908)           n
1  O=C(Nc1cnc2ccccc2c1N1CCN(Cc2ccccc2)CC1)C1CCCC1  Cholinesterase (Equus caballus, UniProt P81908)           n
2  O=C(Nc1cnc2ccccc2c1N1CCN(Cc2ccccc2)CC1)c1ccccn1  Cholinesterase (Equus caballus, UniProt P81908)           y

QUERY: # check: IC50 < 600 nM for O=C(Nc1cnc2ccccc2c1N1CCN(Cc2ccccc2)CC1)c1cccc(Cl)c1
RESULT: n

QUERY: Further, for CCCCc1ccc(C(=O)Nc2cnc3ccccc3c2N2CCN(Cc3ccccc3)CC2)cc1 ?
RESULT: y

QUERY: Further, for COc1cccc(C(=O)Nc2cnc3ccccc3c2N2CCN(Cc3ccccc3)CC2)c1 ?
RESULT: y
